Experiment: Distance between Hansen solubility parameter of the substance and that of phenol, HSP (phenol)
Format: physicochemical
Details: distance to Hansen solubility parameter of phenol, 25° C.
quantity: HSP (phenol)

- molecule: "CC(O)CO (stereo not drawn) [Propylene glycol, propylene glycol, reference compound]"
  recorded-value: 8
- molecule: "Cc1occc(=O)c1O"
  recorded-value: 6.89
- molecule: "CC1=C(O)C(=O)CC1"
  recorded-value: 5.37
- molecule: "COc1cc(CCC(C)=O)ccc1O"
  recorded-value: 5.56
- molecule: "CC(=O)OCC(COC(C)=O)OC(C)=O [Triacetin, triacetin, reference compound]"
  recorded-value: 7.18
- molecule: "O=C(O)c1ccccc1"
  recorded-value: 5.17

###

Assay: physchem
quantity: logP
Output: the number by itself.

[Q] Supply reported logP belonging to this compound: CC(O)CCO (stereo not shown)
[A] -0.74

###

Assay: Octanol/water partition coefficient Log P at 25° C.
Conditions: n-octanol/water
quantity: logP

- molecule: "COc1cc(CCC(C)=O)ccc1O"
  logP: 1.54

1. CCOC(=O)CCC(=O)OCC [Diethyl succinate, diethyl succinate, reference compound]
2. Cc1occc(=O)c1O
3. CC1=C(O)C(=O)CC1
[Q] // ascending sort on recorded logP Give the order by naming the labels one after another as requested.
[A] 2, 3, 1

###

Test: Dropping point DP of the substance (JIS K2220:2013)
Format: physicochemical
quantity: dropping point DP (°C)

Some solved cases for reference:
- compound: "CC1=C(O)C(=O)CC1"
  dropping point DP, °C: 71
- compound: "O=C(O)c1ccccc1"
  dropping point DP, °C: 122

P. COc1cc(CCC(C)=O)ccc1O
Q. Cc1occc(=O)c1O
R. CC(=O)OCC(COC(C)=O)OC(C)=O [Triacetin, triacetin, reference compound]
[Q] Put the items in sequence by dropping point DP, from largest down. Give the order by naming the labels one after another as requested.
[A] Q, P, R
(Q: 78 °C, P: 54 °C, R: 4 °C)
